Assay: Pharmacokinetics of the metabolite produced in vivo after administration of 7.5-60 mg Compound A
Settings: human, 60 mg, day 15 of once a day administration of about 60 mg of Compound A, read-out: AUC0-24

| Compound | AUC(0-t), ng·h/mL |
| --- | --- |
| CC(C)(O)c1ccc(-c2cnc3c(n2)N([C@H]2CC[C@H](O)CC2)C(=O)CN3)cn1 [O-Desmethyl metabolite] | 46900 |

The values you see were collected from patent US9403829B2.
